B1: library; a variant is named by its letters at N, in order (parent)
chain: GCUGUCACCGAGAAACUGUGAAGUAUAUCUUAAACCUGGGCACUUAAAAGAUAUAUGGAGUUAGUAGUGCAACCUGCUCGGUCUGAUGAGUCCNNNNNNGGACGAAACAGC

# Variants of: B1
# test.description: normalized RNA/DNA level without ligand (relative to sTRSVctl = 100) (log10 (% of sTRSVctl)); HEK293T; ligand: cyclic di-GMP (c-di-GMP-II aptamer); higher = less ribozyme self-cleavage, higher mRNA level
# assay.conditions: reporter: mCherry (pCS4076), ligand present: no
The entries below come with measured normalized RNA/DNA level without ligand (log10) values attached.
recorded.endpoint: normalized RNA/DNA level without ligand (log10)

mutation_notation=GUUUAA numeric_result=1.54
mutation_notation=CACCUC numeric_result=1.7
mutation_notation=GAUAAU numeric_result=1.59
mutation_notation=AAGCUC numeric_result=1.74
mutation_notation=CCGAUG numeric_result=1.09
mutation_notation=AUCCCA numeric_result=1.76
mutation_notation=UGGCAU numeric_result=1.66
mutation_notation=AACAGU numeric_result=1.57
mutation_notation=GUACAG numeric_result=1.65
mutation_notation=AAUCAC numeric_result=1.71
mutation_notation=AGGUAA numeric_result=1.43
mutation_notation=CGAGUA numeric_result=1.74
mutation_notation=CGUUGA numeric_result=1.52
mutation_notation=ACAUGA numeric_result=1.3
mutation_notation=UUCUGG numeric_result=1.79
mutation_notation=CGAAAA numeric_result=1.26
mutation_notation=AUUUUU numeric_result=1.76
mutation_notation=AGCCUU numeric_result=1.71
mutation_notation=AGUAUA numeric_result=1.47
mutation_notation=GCGCAC numeric_result=1.51
mutation_notation=UCGAGG numeric_result=1.77
mutation_notation=CAUCCG numeric_result=1.82
mutation_notation=UCUCGG numeric_result=1.9
